Form field: IC50 (one value per entry).
System: leishmanial cytosolic ribosome
ASSAY_INFO: In vitro inhibition of translation in L. tarentolae lysates (cell-free transcription-translation, EGFP reporter)
Type: biochemical
COND: L. tarentolae lysates; mean ± SE of at least three independent repeats; read-out: Inhibition of translation—IC50, Leishmania
# value in µM; strip the unit string

>  <MOLECULE>
NC[C@@H]1O[C@H](O[C@H]2[C@@H](O)[C@H](O[C@@H]3[C@@H](O)[C@H](N)C[C@H](N)[C@H]3O[C@H]3O[C@H](CN)[C@@H](O)[C@H](O)[C@H]3N)O[C@@H]2CO)[C@H](N)[C@@H](O)[C@@H]1O

>  <IC50 (µM)>
82.4

$$$$
>  <MOLECULE>
NC[C@@H]1O[C@H](O[C@H]2[C@@H](O)[C@H](O[C@@H]3[C@@H](O)[C@H](N)C[C@H](N)[C@H]3O[C@H]3O[C@H](CO)[C@@H](O)[C@H](O)[C@H]3N)O[C@@H]2CO)[C@H](N)[C@@H](O)[C@@H]1O

>  <IC50 (µM)>
3.62

$$$$
>  <MOLECULE>
CNC(C)C1CCC(N)C(OC2C(N)CC(N)C(OC3OCC(C)(O)C(NC)C3O)C2O)O1 (stereo not shown)

>  <IC50 (µM)>
18.4

$$$$

Report IC50 for CN[C@@H]1[C@@H](O[C@H]2O[C@H](CO)[C@@H](N)[C@H](O)[C@H]2O)OC2C[C@@H](N)[C@@H](O[C@H]3[C@H](O)[C@@H](O)[C@H](N)C[C@@H]3N)OC2[C@@H]1O (stereo partly shown)
201
